Reference source for all entries: ChEMBL document CHEMBL5247607

protocol-description: Selectivity index, ratio of IC50 for cytotoxicity against human hTERT-HPNE cells to IC50 for cytotoxicity against human PANC-1 cells
Format: toxicity, cell-based
study-conditions: hTERT-HPNE cells versus PANC-1 cells, read-out: Ratio IC50
outcome-measure: selectivity ratio

structure_smiles=CCN(CC)c1ccc(/C=C2\Cc3cc4c(cc3C2=O)OCO4)cc1 measured_value="> 128"
structure_smiles=CN1CCN(c2ccc(/C=C3\Cc4cc5c(cc4C3=O)OCO5)cc2)CC1 measured_value="> 8.82"
structure_smiles=O=C1/C(=C/c2ccc(-n3cncn3)cc2)Cc2cc3c(cc21)OCO3 measured_value="> 111"
structure_smiles=O=C1/C(=C/c2ccc(OCCN3CCOCC3)cc2)Cc2cc3c(cc21)OCO3 measured_value="> 127"
structure_smiles=O=C1/C(=C/c2ccc(N3CCOCC3)cc2)Cc2cc3c(cc21)OCO3 measured_value=5.52
structure_smiles=O=C1/C(=C/c2ccc(N3CCCC3)cc2)Cc2cc3c(cc21)OCO3 measured_value="> 128"
structure_smiles=O=C1/C(=C/c2ccc(-n3ccnc3)cc2)Cc2cc3c(cc21)OCO3 measured_value=2.16
structure_smiles=O=C1/C(=C/c2ccc(N3CCCCC3)cc2)Cc2cc3c(cc21)OCO3 measured_value=3.28
structure_smiles=CN(C)c1ccc(/C=C2\Cc3cc4c(cc3C2=O)OCO4)cc1 measured_value="> 128"

====

Tested on: PANC-1
protocol-description: Induction of mitochondrial membrane potential loss in human PANC-1 cells assessed as depolarized cells at IC50 incubated for 24 hrs by JC-1 staining based flow cytometry assay (reference value: 5%)
Type: functional
Note to self: use condition met only for Activity readings below 60%; a reading exactly at 60% still gets condition not met.

structure_smiles=CCN(CC)c1ccc(/C=C2\Cc3cc4c(cc3C2=O)OCO4)cc1 qualitative_label="condition not met"
structure_smiles=CN(C)c1ccc(/C=C2\Cc3cc4c(cc3C2=O)OCO4)cc1 qualitative_label="condition met"
structure_smiles=O=C1/C(=C/c2ccc(N3CCCC3)cc2)Cc2cc3c(cc21)OCO3 qualitative_label="condition met"

====

protocol-description: Cytotoxicity against human hTERT-HPNE cells assessed as inhibition of cell growth incubated for 24 hrs by MTT assay
Type: toxicity, cell-based
outcome-measure: IC50 at 24 h (µM)

structure_smiles=O=C1/C(=C/c2ccc(OCCN3CCOCC3)cc2)Cc2cc3c(cc21)OCO3 qualifier=> measured_value=1270
structure_smiles=O=C1/C(=C/c2ccc(-n3cncn3)cc2)Cc2cc3c(cc21)OCO3 qualifier=> measured_value=1510
structure_smiles=O=C1/C(=C/c2ccc(N3CCCCC3)cc2)Cc2cc3c(cc21)OCO3 qualifier== measured_value=1180
structure_smiles=CC(=O)Nc1ccc(/C=C2\Cc3cc4c(cc3C2=O)OCO4)cc1 qualifier== measured_value=57
structure_smiles=CN(C)c1ccc(/C=C2\Cc3cc4c(cc3C2=O)OCO4)cc1 qualifier=> measured_value=1630
structure_smiles=O=C1/C(=C/c2ccc(N3CCCC3)cc2)Cc2cc3c(cc21)OCO3 qualifier=> measured_value=1500
structure_smiles=O=C1/C(=C/c2ccc(-n3ccnc3)cc2)Cc2cc3c(cc21)OCO3 qualifier== measured_value=153
structure_smiles=CN1CCN(c2ccc(/C=C3\Cc4cc5c(cc4C3=O)OCO5)cc2)CC1 qualifier=> measured_value=1380
structure_smiles=O=C1/C(=C/c2ccc(N3CCOCC3)cc2)Cc2cc3c(cc21)OCO3 qualifier== measured_value=1210
structure_smiles=CCN(CC)c1ccc(/C=C2\Cc3cc4c(cc3C2=O)OCO4)cc1 qualifier=> measured_value=1490
